Taken from paper PMC9578396.

- ASSAYED_SYSTEM: PBP2 (Pseudomonas aeruginosa, UniProt Q9X6V3)
- Construct: endogenous in cells
- Sequence (Q9X6V3 1-646): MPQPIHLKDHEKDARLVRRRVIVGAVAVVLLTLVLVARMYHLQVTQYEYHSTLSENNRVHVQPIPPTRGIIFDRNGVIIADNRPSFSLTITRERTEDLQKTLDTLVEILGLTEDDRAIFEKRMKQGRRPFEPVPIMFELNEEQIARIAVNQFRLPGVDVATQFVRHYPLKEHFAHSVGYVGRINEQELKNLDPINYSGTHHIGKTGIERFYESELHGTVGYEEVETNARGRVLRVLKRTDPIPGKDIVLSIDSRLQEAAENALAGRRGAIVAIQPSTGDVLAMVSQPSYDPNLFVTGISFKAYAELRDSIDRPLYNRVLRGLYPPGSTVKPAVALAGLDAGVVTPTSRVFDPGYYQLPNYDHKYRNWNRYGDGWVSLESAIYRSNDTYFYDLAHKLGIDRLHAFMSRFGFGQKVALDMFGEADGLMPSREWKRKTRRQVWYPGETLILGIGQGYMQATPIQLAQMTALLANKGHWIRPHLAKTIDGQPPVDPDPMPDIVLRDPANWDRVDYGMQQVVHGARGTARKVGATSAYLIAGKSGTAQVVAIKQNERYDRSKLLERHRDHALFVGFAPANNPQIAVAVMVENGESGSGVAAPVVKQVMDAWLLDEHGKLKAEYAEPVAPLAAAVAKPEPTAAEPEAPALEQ
- ASSAY_REMARKS: Gel-based Bocillin FL competition PBP binding assay
- MEASUREMENT_PARAMETERS: P. aeruginosa PAM3034 membranes; Bocillin FL step 0°C for xeruborbactam, 30°C for beta-lactams; read-out: Relative binding IC50, PBP2
pIC50: −log10 of the molar value.
MEASURED_ATTRIBUTE: pIC50

| SMI | MEASURED_ATTRIBUTE | VALUE_OBSERVED |
| --- | --- | --- |
| O=C(O)c1c(F)ccc2c1OB(O)[C@@H]1C[C@H]21 | pIC50 | 3.43 |

----------
# maps each entry to its MIC
- System: Klebsiella pneumoniae
- ASSAY_REMARKS: microbe, parasite or virus in culture
- Type: cell-based
- MEASUREMENT_PARAMETERS: Klebsiella pneumoniae, strain KPM1027, ramR; read-out: MIC

| MOLECULE | ASSAYED_SYSTEM | UNIT_TAG | MIC |
| --- | --- | --- | --- |
| CC1=C[C@@H]2CN(C(=O)N2OS(=O)(=O)O)[C@@H]1C(N)=O [Durlobactam] | Klebsiella pneumoniae | µg/mL | 0.5 |
| NC(=O)[C@@H]1CC[C@@H]2CN1C(=O)N2OS(=O)(=O)O [Avibactam] | Klebsiella pneumoniae | µg/mL | 16 |
| O=C(O)c1c(F)ccc2c1OB(O)[C@@H]1C[C@H]21 [Xeruborbactam] | Klebsiella pneumoniae | µg/mL | 16 |
| CO/N=C(\C(=O)N[C@@H]1C(=O)N2C(C(=O)[O-])=C(C[N+]3(C)CCCC3)CS[C@H]12)c1csc(N)n1 [Cefepime] | Klebsiella pneumoniae | µg/mL | 0.25 |
| O=C(NNC(=O)[C@@H]1CC[C@@H]2CN1C(=O)N2OS(=O)(=O)O)[C@@H]1CCCNC1 [Zidebactam] | Klebsiella pneumoniae | µg/mL | 0.25 |
| NCCONC(=O)[C@@H]1CC[C@@H]2CN1C(=O)N2OS(=O)(=O)O [Nacubactam] | Klebsiella pneumoniae | µg/mL | 4 |

----------
# maps each entry to its MIC
- Tested on: Escherichia coli
- ASSAY_REMARKS: Broth microdilution MIC (CLSI), Escherichia coli
- Type: cell-based
- MEASUREMENT_PARAMETERS: Escherichia coli, strain ECM6502, marR (AcrAB overexpression)
MEASURED_ATTRIBUTE: MIC (mg/L)

| MOLECULE | ASSAYED_SYSTEM | MEASURED_ATTRIBUTE | VALUE_OBSERVED |
| --- | --- | --- | --- |
| O=C(NNC(=O)[C@@H]1CC[C@@H]2CN1C(=O)N2OS(=O)(=O)O)[C@@H]1CCCNC1 | Escherichia coli | MIC | 0.5 |
| NC(=O)[C@@H]1CC[C@@H]2CN1C(=O)N2OS(=O)(=O)O | Escherichia coli | MIC | 8 |
| NCCONC(=O)[C@@H]1CC[C@@H]2CN1C(=O)N2OS(=O)(=O)O | Escherichia coli | MIC | 2 |
| O=C(O)c1c(F)ccc2c1OB(O)[C@@H]1C[C@H]21 | Escherichia coli | MIC | 8 |
| CO/N=C(\C(=O)N[C@@H]1C(=O)N2C(C(=O)[O-])=C(C[N+]3(C)CCCC3)CS[C@H]12)c1csc(N)n1 [Cefepime] | Escherichia coli | MIC | 0.125 |
| C[C@@H](O)[C@H]1C(=O)N2C(C(=O)O)=C(S[C@@H]3CN[C@H](C(=O)N(C)C)C3)[C@H](C)[C@H]12 | Escherichia coli | MIC | 0.06 |
| CC1=C[C@@H]2CN(C(=O)N2OS(=O)(=O)O)[C@@H]1C(N)=O | Escherichia coli | MIC | 0.25 |
